Every entry's value here was drawn from PubChem BioAssay (NCI).

Test: NCI Yeast Anticancer Drug Screen. Data for the rad50 strain (AID 155)
Conditions: S. cerevisiae rad50 strain growth inhibition; at 3.7 µM
This is part of a sample that, as a whole, favours compounds with a hit. Of some 79,000 tested, about 15% had one in any assay. The source made the active and inactive calls. No stated cut-off is given here; in the data, active means growth inhibition above about 70%; inactive means the rest.
Write down one outcome, taken from active, inactive

The examples below pair each entry with its known result.
compound	class-label
CCOC(=O)C1=C(C)NC(C)=C(C(=O)OCC)C1c1cccc([N+](=O)[O-])c1	inactive
Cc1ccc2oc(-c3cccc(N)c3)nc2c1	inactive
CCCCCCCCCCCCCCCCOCC(Cl)COP(=O)(O)OP(=O)(O)OCC1OC(n2cnc3c(N)ncnc32)C(O)C1O (stereo not given)	inactive
CCOc1ccccc1N1C(=O)CC(Sc2ccccc2N)C1=O (stereo not given)	inactive

For COc1ccc(C(=O)OCCc2ccccc2)cc1 , what call appears in the results of this test?
inactive

For COC(=O)C1(N2CCOCC2)CCC([C@@H](c2ccccc2)C(C)[N+](=O)[O-])C1 (stereo not given in full) , what call appears in the results of this test?
inactive

For Cc1cnccc1N=Nc1ccc(N(C)C)cc1 , what call appears in the results of this test?
inactive

For CN(C)c1ccc(/C=C/c2ccnc3ccc4ccccc4c23)cc1 , what call appears in the results of this test?
inactive

For O=C1c2ccccc2-c2ccc(NC(=O)C3CCCCC3C(=O)O)cc21 (stereo not given) , what call appears in the results of this test?
inactive
